GI50 values, listed per item
System: SNB-75
Assay: NCI tumour cell line growth inhibition, 48 h
Activity calls are given as the source filed them. Rule as the data show it: active = GI50 up to about 1.1 µM and inactive = higher.

COMPOUND	GI50
CC(=O)OC1COC(N2C(=O)C(=O)c3cc(Br)ccc32)C(OC(C)=O)C1OC(C)=O (stereo not given)	> 100 µM (inactive)

Which measured GI50 belongs to `Cc1[nH]c2c(c1C)S(=O)(=O)c1cc3ccccc3nc1N2` , tested on SNB-75?
17.3 µM (inactive)

Which measured GI50 belongs to `CCOC(=O)c1nnsc1NC(=O)Nc1ccc(Cl)cc1` , tested on SNB-75?
21.1 µM (inactive)

Which measured GI50 belongs to `Cc1ccc(S(=O)(=O)NC2=NS(=O)(=O)c3cc(C)c(Cl)cc3S2)cc1` , tested on SNB-75?
> 100 µM (inactive)

Which measured GI50 belongs to `COC(=O)/C(C#N)=C/c1cc(C(C)(C)C)c(O)c(C(C)(C)C)c1` , tested on SNB-75?
3.3 µM (inactive)

Which measured GI50 belongs to `CCOC(=O)NC(Nc1ccc(C(=O)OCC)cc1)(C(F)(F)F)C(F)(F)F` , tested on SNB-75?
> 100 µM (inactive)

Which measured GI50 belongs to `c1ccc(-n2nc3ccc4nonc4c3n2)cc1` , tested on SNB-75?
49.1 µM (inactive)

Which measured GI50 belongs to CC1CC2C3CC(F)C4=CC(=O)C=CC4(C)C3(F)C(O)CC2(C)C1(O)C(=O)CO (stereo not given) , tested on SNB-75?
> 100 µM (inactive)

Which measured GI50 belongs to `CCOC(=O)c1[nH]cc(C)c1-c1ccn(-c2ccccc2)c1` , tested on SNB-75?
13.3 µM (inactive)

Which measured GI50 belongs to `CCOC(=O)NC(Nc1cc(Cl)ccc1OC)(C(F)(F)F)C(F)(F)F` , tested on SNB-75?
> 100 µM (inactive)
